Origin of values: patent US20210380703A1

Answer each item with its documented optical density.
target: T1, biotinylated goat anti-human kappa light chain; assay: ELISA, positive control; also: test concentration or dose not given here
T1 construct: positive control of the ELISA
Numbers only, in OD.

{"BINDER": "367_C07 (antibody, V domains shown, Group III) VH: EVQLLESGGGLVQPGGSLRLSCAASGFTFSSYSMNWVRQAPGKGLEWVSSINYNSGYTGYADSVKGRFTISRDNSKNTLYLQMNSLRAEDTAVYYCARGANWHDTHLDYWGQGTLVTVSS VL: DIQMTQSPSSLSASVGDRVTITCRASQSILTYVNWYQQKPGKAPKLLIYAATSRASGVPSRFSGSGSGTDFTLTISSLQPEDFATYYCQQSYNLPLTFGGGTKVEIK", "UNITS OF MEASURE": "OD", "optical density": 3.41}
{"BINDER": "371_G02 (antibody, V domains shown, Group III) VH: EVQLLESGGGLVQPGGSLRLSCAASGFTFDSYGMNWVRQAPGKGLEWVASINYNGGYTSYADSVKGRFTISRDNSKNTLYLQMNSLRAEDTAVYYCARGANWHDTHLDYWGQGTLVTVSS VL: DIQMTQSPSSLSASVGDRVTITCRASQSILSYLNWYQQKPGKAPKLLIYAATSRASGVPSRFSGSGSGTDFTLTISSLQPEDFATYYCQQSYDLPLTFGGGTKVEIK", "UNITS OF MEASURE": "OD", "optical density": 3.67}

# query: optical density of entry 374_G09 (antibody, V domains shown, Group III) VH: EVQLLESGGGLVQPGGSLRLSCAASGFTFSSYSMNWVRQAPGKGLEWVAGINYNGGYKGYADSVKGRFTISRDNSKNTLYLQMNSLRAEDTAVYYCARGANWHDTHLDYWGQGTLVTVSS VL: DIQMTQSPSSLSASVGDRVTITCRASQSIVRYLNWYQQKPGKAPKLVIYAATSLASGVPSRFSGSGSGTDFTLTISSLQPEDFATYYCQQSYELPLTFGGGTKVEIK
3.26
